target: Cytochrome P450 2C9 (Homo sapiens) (UniProt P11712); experiment: Cytochrome panel assay with activity outcomes; conditions: recombinant CYP, pro-luciferin dealkylation, luminescence, p450-cyp2c9; series mostly up to 57.1 µM
Sequence (P11712 whole entry, looked up): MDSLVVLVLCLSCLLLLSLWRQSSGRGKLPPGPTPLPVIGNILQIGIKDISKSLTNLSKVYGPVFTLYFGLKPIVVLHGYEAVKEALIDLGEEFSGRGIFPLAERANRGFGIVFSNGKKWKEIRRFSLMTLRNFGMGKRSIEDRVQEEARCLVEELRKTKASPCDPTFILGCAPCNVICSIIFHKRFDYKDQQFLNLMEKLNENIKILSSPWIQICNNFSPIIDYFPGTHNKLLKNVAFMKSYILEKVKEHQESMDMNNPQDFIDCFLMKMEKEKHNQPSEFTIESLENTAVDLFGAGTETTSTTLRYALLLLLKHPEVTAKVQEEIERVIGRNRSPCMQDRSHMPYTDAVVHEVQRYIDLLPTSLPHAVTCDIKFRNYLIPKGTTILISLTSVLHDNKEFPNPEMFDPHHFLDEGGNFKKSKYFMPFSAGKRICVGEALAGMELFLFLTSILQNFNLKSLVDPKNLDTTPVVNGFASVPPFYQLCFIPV
The whole screen tested about 16,000 compounds, of which about 4,000 (25%) were called active. About 26% were inconclusive and are not listed. Calls come from the whole dose curve; as a rule, active = well fitted curve in the direction sought with a large enough effect; inconclusive = small, poorly fitted or top-dose-only effect, or effect the other way; inactive = no such curve, though single readings can be large or run the other way. These entries were drawn from the full list.
Please reply with one of these outcomes: active, inactive

Hi, sorry to bother you, what did the test record for CCCNC(=S)Nc1ccc(Br)cc1 ? active

Hi, sorry to bother you, what did the test record for COc1ccc(-c2cc(C(F)(F)F)nc(NCc3cccnc3)n2)cc1 ? active

Hi, sorry to bother you, what did the test record for CN(C)c1ncc2nc(-c3cc(F)cc(F)c3)c(=O)n(Cc3cccs3)c2n1 ? inactive

Hi, sorry to bother you, what did the test record for CC12c3ccccc3C(c3ccccc31)C1C(=O)N(Cc3cccnc3)C(=O)C12 (configuration not stated) ? active

Hi, sorry to bother you, what did the test record for COc1ccc(OC(=O)c2ccncc2)cc1 ? active

Hi, sorry to bother you, what did the test record for COc1ccc(C2C(=O)N(C3CCCCCC3)CC(=O)N2Cc2ccccc2)cc1OC (configuration not stated) ? active

Hi, sorry to bother you, what did the test record for Nc1nc(SCC(=O)Nc2ccccc2Sc2ccc(Cl)cc2)n[nH]1 ? active

Hi, sorry to bother you, what did the test record for O=C(CCN1C(=O)S/C(=C\c2ccccc2)C1=O)Nc1ccc(S(=O)(=O)Nc2nccs2)cc1 ? active

Hi, sorry to bother you, what did the test record for O=C(Nc1ccc(OC(=O)c2cccnc2)cc1)c1cccnc1 ? inactive

Hi, sorry to bother you, what did the test record for CCCCOc1ccc(OC(=O)c2cccnc2)cc1 ? active

Hi, sorry to bother you, what did the test record for COc1ccc(C(=O)N2CCC3(CC2)CCN(c2ccncc2)CC3)cc1 ? inactive

Hi, sorry to bother you, what did the test record for Brc1ccc(-c2csc(N3CCC(c4ccccc4)C3)n2)cc1 (configuration not stated) ? active

Hi, sorry to bother you, what did the test record for CN1CCN(c2ncc3ncc(=O)n(-c4ccccc4)c3n2)CC1 ? inactive

Hi, sorry to bother you, what did the test record for CC1=C(C(=O)O)N2C(=O)C(NC(=O)c3ccn(C)n3)C2SC1 (configuration not stated) ? inactive

Hi, sorry to bother you, what did the test record for Clc1ccc(Sc2cc(N3CCOCC3)nc(-c3ccccc3)n2)cc1 ? active

Hi, sorry to bother you, what did the test record for COc1cccc(Sc2cc(N3CCOCC3)nc(-c3ccccc3)n2)c1 ? active

Hi, sorry to bother you, what did the test record for COC(=O)CSc1cc(C(F)(F)F)nc(-c2ccccn2)n1 ? inactive

Hi, sorry to bother you, what did the test record for C[C@@](N)(C(=O)O)c1ccc(S(=O)(=O)O)cc1 ? inactive

Hi, sorry to bother you, what did the test record for COc1ccc(CN2C(=O)CN(C3CCCCCC3)C(=O)C2c2ccc(OC)c(OC)c2)cc1 (configuration not stated) ? active

Hi, sorry to bother you, what did the test record for Cc1ccc([N+](=O)[O-])cc1NC(=S)NC(=O)CC(C)(C)C ? active

Hi, sorry to bother you, what did the test record for Nc1nc(Cl)cc(N2CCOCC2)n1 ? inactive

Hi, sorry to bother you, what did the test record for COC(=O)CNC(=O)CN1C(=O)N(c2ccc(Cl)cc2)C(N(O)C(=O)Nc2ccc(Cl)cc2)C1(C)C (configuration not stated) ? active

Just for reference, PubChem BioAssay AID1851 is where these values come from.
